Form field: pest or weed control at 250 g/ha (one value per entry).
# System: ECHCG
# assay: Post-emergence biological efficacy
# Assay type: in vivo
# assaySetup: Echinochloa crus-galli, 312 h, evaluated after 13 days, read-out: damage to plant (100=total damage to plant; 0=no damage to plant)
Your answer is read as %, so omit the unit and give the number.

Use these answered entries as a reference point.
molecule | measuredTarget | endpoint | result
CCOC(=O)C1(C)CC(c2cc(-c3cncc(OC)c3)c(F)cc2Cl)=NO1 (stereo not drawn) [Compound 1-379] | ECHCG | pest or weed control at 250 g/ha | 40
CCOC(=O)C1(C)CC(c2cc(-c3cnc4c(c3)OC(F)(F)O4)c(F)cc2Cl)=NO1 (stereo not drawn) [Compound 1-451] | ECHCG | pest or weed control at 250 g/ha | 100

Here is another molecule to look at.
Quick check: pest or weed control at 250 g/ha of CCOC(=O)C1(C)CC(c2cc(-c3ccc(C)nc3F)c(F)cc2Cl)=NO1 (stereo not drawn) [Compound 1-463] ?
90

====

Property: pest or weed control at 250 g/ha; scope: individual molecules
# System: IPOHE
# assay: Post-emergence biological efficacy
# Format: in vivo
# assaySetup: Ipomoea hederacea, 312 h, evaluated after 13 days, read-out: damage to plant (100=total damage to plant; 0=no damage to plant)
# unit: % | format: bare number

Previously resolved entries follow.
molecule | endpoint | result
CCOC(=O)C1(C)CC(c2cc(-c3ncc(S(C)(=O)=O)cc3Cl)c(F)cc2Cl)=NO1 (stereo not shown) [Compound 1-643] | pest or weed control at 250 g/ha | 100
CCOC(=O)C1(C)CC(c2cc(-c3ncc(C)cc3Cl)c(F)cc2Cl)=NO1 (stereo not shown) [Compound 1-175] | pest or weed control at 250 g/ha | 100
CCOC(=O)C1(C)CC(c2cc(-c3cnc(C(F)(F)F)cn3)c(F)cc2Cl)=NO1 (stereo not shown) [Compound 1-751] | pest or weed control at 250 g/ha | 100

Okay, now this molecule:
Which measured pest or weed control at 250 g/ha belongs to CCOC(=O)C1(C)CC(c2cc(-c3cccc(C(F)(F)F)n3)c(F)cc2Cl)=NO1 (stereo not shown) [Compound 1-43] , tested on IPOHE?
60

====

# pest or weed control at 250 g/ha listing for each entry below
# System: ECHCG
# assay: Post-emergence biological efficacy
# Assay type: in vivo
# assaySetup: Echinochloa crus-galli, 312 h, evaluated after 13 days, read-out: damage to plant (100=total damage to plant; 0=no damage to plant)
Write the number in % without appending the unit.

Past entries and their recorded results:
compound | measuredTarget | endpoint | result
CCOC(=O)C1(C)CC(c2cc(-c3ccc(C(F)(F)F)nc3Cl)c(F)cc2Cl)=NO1 (stereo not shown) | ECHCG | pest or weed control at 250 g/ha | 90
CCOC(=O)C1(C)CC(c2cc(-c3ncc(F)cc3F)c(F)cc2Cl)=NO1 (stereo not shown) | ECHCG | pest or weed control at 250 g/ha | 100
CCOC(=O)C1(C)CC(c2cc(-c3cnc(F)c(Cl)c3)c(F)cc2Cl)=NO1 (stereo not shown) | ECHCG | pest or weed control at 250 g/ha | 40
CCOC(=O)C1(C)CC(c2cc(-c3c(Cl)cc(C(F)(F)F)c[n+]3[O-])ccc2Cl)=NO1 (stereo not shown) | ECHCG | pest or weed control at 250 g/ha | 100
CCOC(=O)C1(C)CC(c2cc(-c3c(Cl)cc(C(F)(F)F)c[n+]3[O-])c(F)cc2Cl)=NO1 (stereo not shown) | ECHCG | pest or weed control at 250 g/ha | 100

May I ask what pest or weed control at 250 g/ha has been recorded for CCOC(=O)C1(C)CC(c2cc(-c3cnccc3OC)c(F)cc2Cl)=NO1 (stereo not shown) ?
20

Value lookup for pest or weed control at 250 g/ha; key = CCOC(=O)C1(C)CC(c2cc(-c3ccccc3Cl)c(F)cc2Cl)=NO1 (stereo not shown)
20

pest or weed control at 250 g/ha for CCOC(=O)C1(C)CC(c2cc(-c3cnc(F)c(OC)c3)c(F)cc2Cl)=NO1 (stereo not shown) ?
70

Could you tell me which pest or weed control at 250 g/ha is on file for CCOC(=O)C1(C)CC(c2cc(-c3ncc(C)cc3Cl)c(F)cc2Cl)=NO1 (stereo not shown) ?
100

Dear colleague, I am looking for the recorded pest or weed control at 250 g/ha of the following compound: CCOC(=O)C1(C)CC(c2cc(-c3cnc(F)c(F)c3)c(F)cc2Cl)=NO1 (stereo not shown)
40

pest or weed control at 250 g/ha for CCOC(=O)C1(C)CC(c2cc(-c3ncc(C(F)F)cc3Cl)c(F)cc2Cl)=NO1 (stereo not shown) ?
100

What value of pest or weed control at 250 g/ha has been reported for the following compound? CCOC(=O)C1(C)CC(c2cc(-c3ncc(C(F)(F)F)cc3F)c(F)cc2Cl)=NO1 (stereo not shown)
100

====

We begin with a simple list: items and their reported pest or weed control at 250 g/ha.
# Test system: LOLPE
# assay: Post-emergence biological efficacy
# Assay type: in vivo
# assaySetup: Lolium perenne, 312 h, evaluated after 13 days, read-out: damage to plant (100=total damage to plant; 0=no damage to plant)
Reply with just the number (in %).

Before answering, review these 5 worked examples.
compound | measurementUnit | pest or weed control at 250 g/ha
CCOC(=O)C1(C)CC(c2cc(-c3cnc4c(c3)OC(F)(F)O4)c(F)cc2Cl)=NO1 (centres unmarked) [Compound 1-451] | % | 100
CCOC(=O)C1(C)CC(c2cc(-c3ccccn3)c(F)cc2Cl)=NO1 (centres unmarked) [Compound 1-139] | % | 0
CCOC(=O)C1(C)CC(c2cc(-c3cc(C(F)(F)F)cc(Cl)n3)c(F)cc2Cl)=NO1 (centres unmarked) [Compound 1-67] | % | 0
CCOC(=O)C1(C)CC(c2cc(-c3ncc(Br)cc3Cl)c(F)cc2Cl)=NO1 (centres unmarked) [Compound 1-559] | % | 90
CCOC(=O)C1(C)CC(c2cc(-c3ccnc(Cl)c3Cl)c(F)cc2Cl)=NO1 (centres unmarked) [Compound 1-535] | % | 50

Would you kindly share the measured pest or weed control at 250 g/ha for CCOC(=O)C1(C)CC(c2cc(-c3c(Cl)cc(C(F)(F)F)c[n+]3[O-])ccc2Cl)=NO1 (centres unmarked) [Compound 1-663] ?
100

Quick one: pest or weed control at 250 g/ha of CCOC(=O)C1(C)CC(c2cc(-c3cnc(Cl)c(Cl)c3)c(F)cc2Cl)=NO1 (centres unmarked) [Compound 1-427] ?
20

What value of pest or weed control at 250 g/ha has been recorded for this entry: CCOC(=O)C1(C)CC(c2cc(-c3cccc(C(F)(F)F)n3)c(F)cc2Cl)=NO1 (centres unmarked) [Compound 1-43]
0

====

# Test system: LOLPE
# assay: Pre-emergence biological efficacy
# Format: in vivo
# assaySetup: Lolium perenne, 312 h, evaluated after 13 days, read-out: damage to plant (100=total damage to plant; 0=no damage to plant)
endpoint: pest or weed control at 250 g/ha (%)
Note: unit % is implicit; provide only the numeric part.

The following compounds have reported results that may help.
compound | pest or weed control at 250 g/ha [%]
CCOC(=O)C1(C)CC(c2cc(-c3ncc(S(C)(=O)=O)cc3Cl)c(F)cc2Cl)=NO1 (stereo not drawn) | 100
CCOC(=O)C1(C)CC(c2cc(-c3ncc(C(F)(F)F)cc3Br)c(F)cc2Cl)=NO1 (stereo not drawn) | 70

# returns recorded pest or weed control at 250 g/ha (system: LOLPE) for CCOC(=O)C1(C)CC(c2cc(-c3nccnc3C(F)(F)F)c(F)cc2Cl)=NO1 (stereo not drawn)
20

Lookup: pest or weed control at 250 g/ha / LOLPE / CCOC(=O)C1(C)CC(c2cc(-c3cnc(F)c(Cl)c3)c(F)cc2Cl)=NO1 (stereo not drawn)
20

Reported pest or weed control at 250 g/ha for LOLPE, given CCOC(=O)C1(C)CC(c2cc(-c3cc(C(F)(F)F)cnc3Br)c(F)cc2Cl)=NO1 (stereo not drawn) ?
0

Form: Entry = CCOC(=O)C1(C)CC(c2cc(-c3ccccc3Cl)c(F)cc2Cl)=NO1 (stereo not drawn) | System = LOLPE | pest or weed control at 250 g/ha = ____
0

// map CCOC(=O)C1(C)CC(c2cc(-c3ncc(Cl)cc3C(F)(F)F)c(F)cc2Cl)=NO1 (stereo not drawn) to recorded pest or weed control at 250 g/ha (system: LOLPE)
20

Any idea what pest or weed control at 250 g/ha came out for CCOC(=O)C1(C)CC(c2cc(-c3cnc(F)c(OC)c3)c(F)cc2Cl)=NO1 (stereo not drawn) on LOLPE?
0

Provide value of pest or weed control at 250 g/ha for this record tested with LOLPE: CCOC(=O)C1(C)CC(c2cc(-c3ccc(Cl)nn3)c(F)cc2Cl)=NO1 (stereo not drawn)
0

Enter reported pest or weed control at 250 g/ha observed with LOLPE for CCOC(=O)C1(C)CC(c2cc(-c3ccnc(F)c3)c(F)cc2Cl)=NO1 (stereo not drawn)
0
